- measurement_description: chemical genetic growth profiling, strain panel (AID 1159580);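 note: tested at 20 µM; growth read once vehicle control cultures reached saturation at 30 °C; 1 = growth at the plate median or of vehicle wells; lower values mean less growth of the strain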
- measurement_context: S. cerevisiae deletion strains, growth OD, locus YLR371W, strain rom2, active compounds read low
In all, about 5,500 compounds went through this assay and about 2,000 (36%) were called active. Not shown: some 18% with an inconclusive outcome. This is one part of the list.
# normalized growth listing for each entry below
Answer with a bare number; do not write a unit.

COc1cc(C(=O)NCc2ccc(OCCN(C)C)cc2)cc(OC)c1OC | 0.984
CCN(CC)CCOc1ccc2c(c1)C(=O)c1cc(OCCN(CC)CC)ccc1-2 | 0.961

# normalized growth of CC(=O)O[C@H]1C[C@@H](OC(C)=O)C(C)(C)C2C[C@@H](OC(C)=O)[C@@]3(C)C4=CC(=O)O[C@@H](c5ccoc5)[C@]4(C)CCC3[C@]21C (some centres undefined) = 0.995

# normalized growth of CCN(CC)CCOc1ccc(/C(=C(\Cl)c2ccccc2)c2ccccc2)cc1 = 0.0621

---

- measurement_description: chemical genetic growth profiling, strain panel (AID 1159580)
- measurement_context: S. cerevisiae deletion strains, growth OD, locus YCL011C, strain gbp2
Out of some 5,500 compounds screened, about 2,000 (36%) were called active. About 18% were inconclusive and are not listed. No stated cut-off is given here; in the data, active means normalized growth mostly below about 0.91 (no sharp cut-off); inconclusive means no clear call, values can overlap the other calls; inactive means mostly above about 0.92. The list shows a part of the results.
Return exactly one item of T (active), F (inactive)

Nc1ncn([C@@H]2O[C@H](CO)[C@@H](O)[C@H]2O)c(=O)n1 | F
CC(=O)Oc1ccc(Cl)c2cccnc12 | T
O=C(NC(=O)c1c(F)cccc1F)Nc1ccc(Cl)cc1 | F
Cc1c(Nc2ncccc2C(=O)O)cccc1C(F)(F)F | F
CCCCC(CC)CN1CN(CC(CC)CCCC)CC(C)(N)C1 (stereo unspecified) | T
Oc1c(Cl)cc(Cl)c2cccnc12 | T
N[C@@H](Cc1ccc(O)c(O)c1)C(=O)O | F
Oc1ccc(Cl)c2cccnc12 | T
Oc1c(I)cc(Cl)c2cccnc12 | T
CS(=O)(=O)CCCCN=C=S | T

In: What did the test return for Nc1ncnc2c1ncn2C1C[C@H](O)[C@@H](CO)O1 (stereo partly specified) ?
Out: F

In: What did the test return for O=C1O[C@H](C(O)CO)C(O)=C1O (stereo partly specified) ?
Out: F

In: What did the test return for O=C(O)c1ccccc1Nc1ccccc1 ?
Out: F

---

# normalized growth listing for each entry below
- measurement_description: chemical genetic growth profiling, strain panel (AID 1159580)
- measurement_context: S. cerevisiae deletion strains, growth OD, locus YBR231C, strain swc5, active compounds read low
In all, about 5,500 compounds went through this assay and about 2,000 (36%) were called active. Roughly 18% stayed inconclusive and do not appear here. This is one part of the list.
Answer with a bare number; do not write a unit.

// solved cases for normalized growth follow
CN(C)CCOc1ccc(/C(=C(/CCCl)c2ccccc2)c2ccccc2)cc1 | 0.0672
CC/C(=C(\c1ccccc1)c1ccc(OCCN(C)C)cc1)c1ccccc1 | 0.0729
CC(C)(C)NC[C@@H](O)COc1nsnc1N1CCOCC1 | 1.02
Nc1ccc(S(=O)(=O)Nc2ccc(Cl)nn2)cc1 | 0.995

# normalized growth of CCCC(C)C1(CC)C(=O)N=C(S)NC1=O (configuration not stated) = 1.01

# normalized growth of COc1cc(C(=O)NCc2ccc(OCCN(C)C)cc2)cc(OC)c1OC = 0.99

---

- measurement_description: chemical genetic growth profiling, strain panel (AID 1159580)
- measurement_context: S. cerevisiae deletion strains, growth OD, locus YML016C, strain PPZ1, active compounds read low
About 2,000 (36%) of roughly 5,500 compounds were called active. Another 18% or so got no clear call; they are omitted. This is one part of the list.
# normalized growth listing for each entry below

// solved cases for normalized growth follow
CC(=O)OC1CC(OC(C)=O)C2(C)C(CC(OC(C)=O)C3(C)C2CCC2(C)C(c4ccoc4)CC4OC423)C1(C)C (centres undefined) | 1.01 (inactive)
Nc1ncn([C@@H]2O[C@H](CO)[C@@H](O)[C@H]2O)c(=O)n1 | 1.01 (inactive)
CC1(C)C(=O)C=CC2(C)C3CCC4(C)C(c5ccoc5)CC5OC54C3C(O)CC12 (centres undefined) | 0.993 (inactive)
C[n+]1cccc(C(=O)[O-])c1 | 1.02 (inactive)
CC1(C)C(O)CC(O)C2(C)C1CC(O)C1(C)C2CCC2(C)C(c3ccoc3)CC3OC321 (centres undefined) | 1 (inactive)
CC(=O)O[C@@H]1CC2C(C)(C)C=CC(=O)[C@]2(C)C2CC[C@@]3(C)[C@H](c4ccoc4)OC(=O)C4OC43[C@@]21C (some centres undefined) | 1.02 (inactive)
C1CCN2C[C@@H]3C[C@H](CN4CCCC[C@@H]34)[C@H]2C1 | 0.997 (inactive)
O=C1CCCC2C3CC(CN12)[C@@H]1CCCCN1C3 (some centres undefined) | 0.978 (inactive)

Consider now this further molecule.
# normalized growth of CC1(C)C(=O)C=C[C@@]2(C)C1=C(O)C(=O)[C@]1(C)C2CC[C@@]2(C)[C@H](c3ccoc3)C[C@H]3O[C@]321 (some centres undefined) = 0.887 (active)

---

# normalized growth listing for each entry below
- measurement_description: chemical genetic growth profiling, strain panel (AID 1159580)
- measurement_context: S. cerevisiae deletion strains, growth OD, locus YHR142W, strain chs7, active compounds read low
Hit rate of the full screen: of about 5,500 compounds, about 2,000 (36%) were called active. About 18% were inconclusive and are not listed. Some of the results follow.
Answer with a bare number; do not write a unit.

// solved cases for normalized growth follow
CC(C)NCC(O)c1ccc2ccccc2c1 (stereo unspecified) | 1
CC(C)(C)NCC(O)c1ccccc1Cl (stereo unspecified) | 1.02
C1CCN2C[C@@H]3C[C@H](CN4CCCC[C@@H]34)[C@H]2C1 | 1
CC(=O)NCCCS(=O)(=O)O | 1.01
CC(=O)Nc1ccc(S(=O)(=O)c2ccc(NC(C)=O)cc2)cc1 | 1.02
C=C(NC(=O)C(=C)NC(=O)c1csc(C2=NC3c4csc(n4)C4NC(=O)c5csc(n5)C(C(C)(O)C(C)O)NC(=O)C5CSC(=N5)C(=CC)NC(=O)C(C(C)O)NC(=O)c5csc(n5)C3(CC2)NC(=O)C(C)NC(=O)C(=C)NC(=O)C(C)NC(=O)C(C(C)CC)NC2C=Cc3c(C(C)O)cc(nc3C2O)C(=O)OC4C)n1)C(N)=O (stereo unspecified) | 1.03

# normalized growth of CC(=O)/C(=C\c1ccccc1)CC(=O)O = 1.01

# normalized growth of O=C1O[C@H](C(O)CO)C(O)=C1O (stereo partly specified) = 0.979

# normalized growth of O=C1CCCC2C3CC(CN12)[C@@H]1CCCCN1C3 (stereo partly specified) = 0.996

# normalized growth of COc1cccc(/C=C/C(=O)O)c1C(C)C = 0.996

# normalized growth of COC(=O)C[C@H]1C(C)(C)C(=O)[C@@H]2CC3=C4CC(=O)O[C@@H](c5ccoc5)[C@]4(C)CCC3[C@@]1(C)C2=O (stereo partly specified) = 0.996

---

- measurement_description: chemical genetic growth profiling, strain panel (AID 1159580);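 note: tested at 20 µM; growth read once vehicle control cultures reached saturation at 30 °C; 1 = growth at the plate median or of vehicle wells; lower values mean less growth of the strain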
- measurement_context: S. cerevisiae deletion strains, growth OD, locus YJL134W, strain LCB3, active compounds read low
Screen size: about 5,500 compounds; about 2,000 (36%) were called active. Not shown: some 18% with an inconclusive outcome. This is one part of the list.
quantity_kind: normalized growth

# normalized growth of c1ccc2c3c([nH]c2c1)CNCC3 = 0.999 (inactive)

---

# normalized growth listing for each entry below
- measurement_description: chemical genetic growth profiling, strain panel (AID 1159580);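 note: tested at 20 µM; growth read once vehicle control cultures reached saturation at 30 °C; 1 = growth at the plate median or of vehicle wells; lower values mean less growth of the strain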
- measurement_context: S. cerevisiae deletion strains, growth OD, locus YJL095W, strain BCK1 (second series), active compounds read low
About 2,000 (36%) of roughly 5,500 compounds were called active. About 18% were inconclusive and are not listed. The list shows a part of the results.
Answer with a bare number; do not write a unit.

// solved cases for normalized growth follow
CC(C)NCC(O)c1ccc2ccccc2c1 (stereo not drawn) | 0.999
CC(C)(C)NCC(O)c1ccccc1Cl (stereo not drawn) | 0.996

Consider now this further compound.
# normalized growth of C=C(CC)C(=O)c1ccc(OCC(=O)O)c(Cl)c1Cl = 1.03

---

- measurement_description: chemical genetic growth profiling, strain panel (AID 1159580);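 note: tested at 20 µM; growth read once vehicle control cultures reached saturation at 30 °C; 1 = growth at the plate median or of vehicle wells; lower values mean less growth of the strain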
- measurement_context: S. cerevisiae deletion strains, growth OD, locus YNL175C, strain NOP13, active compounds read low
The whole screen tested about 5,500 compounds, of which about 2,000 (36%) were called active. Inconclusive results (about 18%) are left out. The list shows a part of the results.
quantity_kind: normalized growth
Answer with a bare number; do not write a unit.

# normalized growth of CC#CCOC(=O)c1c(C)nc2sc3c(c2c1N)CCC(O)C3 (centres undefined) = 0.955

# normalized growth of CCSC(N)=Nc1ccc(C(F)(F)F)cc1 = 1.01
